// reported solubility per item
METHOD: Solubility in alpha-MEM culture medium
Assay type: physicochemical
Answer with a number only, understood to be in µM.

What value of solubility has been recorded for this entry: CCOC(=O)c1cc([N+](=O)[O-])c(COC(=O)Nc2cc3c(c4ccccc24)C(C(=O)c2cc4cc(OC)c(OC)c(OC)c4[nH]2)CN3CCl)n1C (stereo unspecified)
21

---

// reported Ratio per item
Tested on: SK-OV-3
METHOD: Ratio between SKOV3 and SKOV3-NTR neo was determined
Format: functional, Homo sapiens
// no unit string in output, number only

Known results for compounds:
# COMPOUND, MEASURED TARGET, ASSAY VALUE
rows = [
    ("COc1cc2cc(C(=O)C3CN(CCl)c4cc(NC(=O)OCc5c([N+](=O)[O-])ccn5C)c5ccccc5c43)[nH]c2c(OC)c1OC (configuration not stated)", "SK-OV-3", 0.7),
    ("CCOC(=O)c1cc(COC(=O)Nc2cc3c(c4ccccc24)C(C(=O)c2cc4cc(OC)c(OC)c(OC)c4[nH]2)CN3CCl)c([N+](=O)[O-])n1C (configuration not stated)", "SK-OV-3", 9.6),
    ("COc1cc2cc(C(=O)C3CN(CCl)c4cc(NC(=O)OCc5ncc([N+](=O)[O-])n5C)c5ccccc5c43)[nH]c2c(OC)c1OC (configuration not stated)", "SK-OV-3", 50),
    ("COc1cc2cc(C(=O)C3CN(CCl)c4cc(NC(=O)OCc5cnn(C)c5[N+](=O)[O-])c5ccccc5c43)[nH]c2c(OC)c1OC (configuration not stated)", "SK-OV-3", 30.3),
    ("CCOC(=O)c1cc([N+](=O)[O-])c(COC(=O)Nc2cc3c(c4ccccc24)C(C(=O)c2cc4cc(OC)c(OC)c(OC)c4[nH]2)CN3CCl)n1C (configuration not stated)", "SK-OV-3", 0.8),
    ("COc1cc2cc(C(=O)C3CN(CCl)c4cc(NC(=O)OCc5ncc([N+](=O)[O-])n5CCO)c5ccccc5c43)[nH]c2c(OC)c1OC (configuration not stated)", "SK-OV-3", 26),
]

Proceeding to the next compound to report its Ratio.
What value of Ratio has been recorded for this entry: COc1cc2cc(C(=O)N3CC(CCl)c4c3cc(N)c3ccccc43)[nH]c2c(OC)c1OC (configuration not stated)
0.55

---

// reported Ratio per item
Test system: V79
METHOD: Ratio between V79 and V79-NTRpuro was determined
Format: functional, Cricetulus griseus
// no unit string in output, number only

What value of Ratio has been recorded for this entry: COc1cc2cc(C(=O)C3CN(CCl)c4cc(NC(=O)OCc5ccc([N+](=O)[O-])n5C)c5ccccc5c43)[nH]c2c(OC)c1OC (configuration not stated)
1

---

System: SK-OV-3
METHOD: Inhibitory activity was determined against SKOV3 cell line in human
Assay type: functional, cell-based
MEASURED ENDPOINT: pIC50
Lab note — pIC50 values are minus log10 of concentrations in M.

# COMPOUND, pIC50
rows = [
    ("CCOC(=O)c1cc(COC(=O)Nc2cc3c(c4ccccc24)C(C(=O)c2cc4cc(OC)c(OC)c(OC)c4[nH]2)CN3CCl)c([N+](=O)[O-])n1C (stereo not given)", 4.01),
    ("COc1cc2cc(C(=O)C3CN(CCl)c4cc(NC(=O)OCc5cnn(C)c5[N+](=O)[O-])c5ccccc5c43)[nH]c2c(OC)c1OC (stereo not given)", 7.49),
]

Proceeding to the next compound to report its pIC50.
What value of pIC50 has been recorded for this entry: COc1cc2cc(C(=O)C3CN(CCl)c4cc(NC(=O)OCc5c([N+](=O)[O-])ccn5C)c5ccccc5c43)[nH]c2c(OC)c1OC (stereo not given)
7.60

---

Tested on: SK-OV-3
METHOD: Ratio between SKOV3 and SKOV3-NTR neo was determined
Type: functional, Homo sapiens
// reported Ratio per item
// no unit string in output, number only

# MOLECULE, MEASURED TARGET, MEASURED ENDPOINT, ASSAY VALUE
rows = [
    ("COc1cc2cc(C(=O)C3CN(CCl)c4cc(NC(=O)OCc5cnc([N+](=O)[O-])n5C)c5ccccc5c43)[nH]c2c(OC)c1OC (centres undefined)", "SK-OV-3", "Ratio", 21),
]

What value of Ratio has been recorded for this entry: COc1cc2cc(C(=O)C3CN(CCl)c4cc(NC(=O)OCc5ncn(C)c5[N+](=O)[O-])c5ccccc5c43)[nH]c2c(OC)c1OC (centres undefined)
5.6

What value of Ratio has been recorded for this entry: COc1cc2cc(C(=O)C3CN(CCl)c4cc(NC(=O)OCc5ccc([N+](=O)[O-])s5)c5ccccc5c43)[nH]c2c(OC)c1OC (centres undefined)
7

What value of Ratio has been recorded for this entry: COc1cc2cc(C(=O)C3CN(CCl)c4cc(NC(=O)OCc5ccn(C)c5[N+](=O)[O-])c5ccccc5c43)[nH]c2c(OC)c1OC (centres undefined)
0.5

What value of Ratio has been recorded for this entry: COc1cc2cc(C(=O)C3CN(CCl)c4cc(NC(=O)OCc5c([N+](=O)[O-])ncn5C)c5ccccc5c43)[nH]c2c(OC)c1OC (centres undefined)
4.8

What value of Ratio has been recorded for this entry: `NC(=O)c1cc(N2CC2)c([N+](=O)[O-])cc1[N+](=O)[O-]`
317

What value of Ratio has been recorded for this entry: COc1cc2cc(C(=O)C3CN(CCl)c4cc(NC(=O)OCc5ccc([N+](=O)[O-])n5C)c5ccccc5c43)[nH]c2c(OC)c1OC (centres undefined)
1.3

What value of Ratio has been recorded for this entry: `NC(=O)c1cc(N(CCBr)CCBr)c([N+](=O)[O-])cc1[N+](=O)[O-]`
211

What value of Ratio has been recorded for this entry: COc1cc2cc(C(=O)C3CN(CCl)c4cc(NC(=O)OCc5ccc([N+](=O)[O-])o5)c5ccccc5c43)[nH]c2c(OC)c1OC (centres undefined)
1.2

---

// reported pIC50 per item
Test system: V79
METHOD: Inhibitory activity was determined against V79 cell line in chinese hamster
Type: functional, cell-based
MEASUREMENT CONDITIONS: Cricetulus griseus
Lab note — pIC50 values are minus log10 of concentrations in M.

Known results for molecules:
# MOLECULE, pIC50
measured = [
    ("COc1cc2cc(C(=O)N3CC(CCl)c4c3cc(N)c3ccccc43)[nH]c2c(OC)c1OC (configuration not stated)", 9.48),
    ("CCOC(=O)c1cc([N+](=O)[O-])c(COC(=O)Nc2cc3c(c4ccccc24)C(C(=O)c2cc4cc(OC)c(OC)c(OC)c4[nH]2)CN3CCl)n1C (configuration not stated)", 4.28),
    ("COc1cc2cc(C(=O)C3CN(CCl)c4cc(NC(=O)OCc5cnc([N+](=O)[O-])n5C)c5ccccc5c43)[nH]c2c(OC)c1OC (configuration not stated)", 4.62),
    ("COc1cc2cc(C(=O)C3CN(CCl)c4cc(NC(=O)OCc5ncc([N+](=O)[O-])n5C)c5ccccc5c43)[nH]c2c(OC)c1OC (configuration not stated)", 4.17),
]

What value of pIC50 has been recorded for this entry: COc1cc2cc(C(=O)C3CN(CCl)c4cc(NC(=O)OCc5ccn(C)c5[N+](=O)[O-])c5ccccc5c43)[nH]c2c(OC)c1OC (configuration not stated)
4.21

What value of pIC50 has been recorded for this entry: COc1cc2cc(C(=O)C3CN(CCl)c4cc(NC(=O)OCc5c([N+](=O)[O-])ccn5C)c5ccccc5c43)[nH]c2c(OC)c1OC (configuration not stated)
8.22

What value of pIC50 has been recorded for this entry: COc1cc2cc(C(=O)C3CN(CCl)c4cc(NC(=O)OCc5ncn(C)c5[N+](=O)[O-])c5ccccc5c43)[nH]c2c(OC)c1OC (configuration not stated)
4.36

---

METHOD: Solubility in alpha-MEM culture medium
Format: physicochemical
Decide by solubility: equal to or exceeding 10 µM means fulfilled, less means not fulfilled.

Example entries begin here.
# COMPOUND, CLASS ASSIGNMENT
measured = [
    ("COc1cc2cc(C(=O)C3CN(CCl)c4cc(NC(=O)OCc5ccc([N+](=O)[O-])n5C)c5ccccc5c43)[nH]c2c(OC)c1OC (stereo not given)", "not fulfilled"),
    ("COc1cc2cc(C(=O)C3CN(CCl)c4cc(NC(=O)OCc5ccn(C)c5[N+](=O)[O-])c5ccccc5c43)[nH]c2c(OC)c1OC (stereo not given)", "fulfilled"),
    ("COc1cc2cc(C(=O)N3CC(CCl)c4c3cc(N)c3ccccc43)[nH]c2c(OC)c1OC (stereo not given)", "fulfilled"),
    ("COc1cc2cc(C(=O)C3CN(CCl)c4cc(NC(=O)OCc5c([N+](=O)[O-])ccn5C)c5ccccc5c43)[nH]c2c(OC)c1OC (stereo not given)", "not fulfilled"),
    ("COc1cc2cc(C(=O)C3CN(CCl)c4cc(NC(=O)OCc5cnn(C)c5[N+](=O)[O-])c5ccccc5c43)[nH]c2c(OC)c1OC (stereo not given)", "not fulfilled"),
    ("NC(=O)c1cc(N2CC2)c([N+](=O)[O-])cc1[N+](=O)[O-]", "fulfilled"),
    ("COc1cc2cc(C(=O)C3CN(CCl)c4cc(NC(=O)OCc5ncc([N+](=O)[O-])n5C)c5ccccc5c43)[nH]c2c(OC)c1OC (stereo not given)", "not fulfilled"),
    ("COc1cc2cc(C(=O)C3CN(CCl)c4cc(NC(=O)OCc5ccc([N+](=O)[O-])s5)c5ccccc5c43)[nH]c2c(OC)c1OC (stereo not given)", "not fulfilled"),
]

For this compound, is measured solubility 10 µM or higher? `NC(=O)c1cc(N(CCBr)CCBr)c([N+](=O)[O-])cc1[N+](=O)[O-]`
fulfilled

For this compound, is measured solubility 10 µM or higher? COc1cc2cc(C(=O)C3CN(CCl)c4cc(NC(=O)OCc5c([N+](=O)[O-])ncn5C)c5ccccc5c43)[nH]c2c(OC)c1OC (stereo not given)
fulfilled
